# EXPERIMENT NOTES: chemical genetic growth profiling, strain panel (AID 1159580);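 further: tested at 20 µM; growth read once vehicle control cultures reached saturation at 30 °C; 1 = growth at the plate median or of vehicle wells; lower values mean less growth of the strain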
# TEST PARAMETERS: S. cerevisiae deletion strains, growth OD, locus YMR231W, strain pep5, active compounds read low
About 2,000 (36%) of roughly 5,500 compounds were called active. Another 18% or so got no clear call; they are omitted. This is one part of the list.
QUANTITY: normalized growth
Give bare numbers.

Consider the reported normalized growth for these compounds:
COMPOUND	QUANTITY	RESULT NUMBER
COc1c2ccoc2c(OC)c2oc(=O)ccc12	normalized growth	0.991
C=C1CCC2C(CC2(C)C)C(=O)CCC1O (stereo not given)	normalized growth	1.01
COc1c(OC)c2occc2c2oc(=O)ccc12	normalized growth	0.987

Would you be so kind as to report normalized growth for each listed record?
1. C=CCCCCCCCCCCCC(O)CC(O)COC(C)=O (stereo not given) (tested in a mixture with another compound)
2. CCCCC(=O)Oc1ccccc1C(=O)O
3. OCCOCCN1CCN(C2=Nc3ccccc3Sc3ccccc32)CC1

Reply:
0.966
0.967
1

Would you be so kind as to report normalized growth for each listed record?
1. CCCCCCOc1ccccc1C(N)=O
2. Cc1cc(NC(=O)C2=C(O)c3ccccc3S(=O)(=O)N2C)no1
3. COc1ccc2c(c1)O[C@H]1c3ccc(OC)cc3OC[C@@H]21
4. O=c1cc[nH]c(=S)[nH]1
5. OC(Cn1cncn1)(Cn1cncn1)c1ccc(F)cc1F
6. O=C1CC2OCC=C3CN4CC[C@]56c7ccccc7N1C5[C@H]2[C@H]3CC46 (stereo not given in full)

Reply:
1: 0.979; 2: 0.967; 3: 1.03; 4: 1.01; 5: 0.943; 6: 1.03

###

# EXPERIMENT NOTES: chemical genetic growth profiling, strain panel (AID 1159580)
# TEST PARAMETERS: S. cerevisiae deletion strains, growth OD, locus YJL115W, strain asf1, active compounds read low
Where a name gives a salt, the structure may show the parent alone. Hit rate of the full screen: of about 5,500 compounds, about 2,000 (36%) were called active. Inconclusive results (about 18%) are left out. The list shows a part of the results. Where a SMILES comes first, the peptide text is derived from it. The star is where a group is joined. Tfa = O=C(C(F)(F)F)*
QUANTITY: normalized growth
Numbers only.

MOLECULE	RESULT NUMBER
CC(C)C(NC(=O)C(Cc1ccc(O)cc1)NC(=O)C(NC(=O)C(F)(F)F)C(C)C)C(=O)O (stereo not drawn) (Tfa-Val-Tyr-Val-OH; configuration not given here)	0.986

Would you be so kind as to report normalized growth for each listed record?
1. CCN(CC)CCOC(=O)c1ccc(N)cc1
2. C[N+]1(C)C2CC(OC(=O)[C@@H](CO)c3ccccc3)CC1C1OC12 (stereo not given in full)
3. CC(C)(Oc1ccc(C2CC2(Cl)Cl)cc1)C(=O)O (stereo not given)
4. Nc1nc2ncc(=O)[nH]c2c(=O)[nH]1

Reply:
0.98
0.958
0.999
0.977

###

# EXPERIMENT NOTES: chemical genetic growth profiling, strain panel (AID 1159580)
# TEST PARAMETERS: S. cerevisiae deletion strains, growth OD, locus YDL101C, strain DUN1, active compounds read low
In all, about 5,500 compounds went through this assay and about 2,000 (36%) were called active. Inconclusive results (about 18%) are left out. Some of the results follow.
QUANTITY: normalized growth
Numbers only.

Would you be so kind as to report normalized growth for each listed record?
1. N#Cc1c(N)oc(-c2ccco2)c1-c1ccco1
2. CC(C)[C@@H]1CC[C@@H](C)C[C@H]1O
3. NC(=O)c1cccc(N)c1
4. O=C1CCC(c2cccs2)=NN1
5. CCN(CC)C(=O)c1cccc(C)c1
6. O=C(Nc1ccc(OC(F)(F)F)cc1)OC1CN(C(c2ccccc2)c2ccccc2)C1

Reply:
[0.968, 1.01, 1.01, 0.974, 0.999, 0.984]

Would you be so kind as to report normalized growth for each listed record?
1. CC(/C=N\O)=N/Nc1ccccc1
2. COC(=O)C[C@H]1C(C)(C)C(=O)[C@@H]2CC3=C(CC[C@]4(C)C3=CC(=O)O[C@H]4c3ccoc3)[C@@]1(C)C2=O
3. CC1(C)O[C@@H]2CC3C4CCC5=CC(=O)CCC5(C)C4(F)C(O)CC3(C)[C@]2(C(=O)CCl)O1 (stereo partly specified)
4. O=S1OCC2C(CO1)C1(Cl)C(Cl)=C(Cl)C2(Cl)C1(Cl)Cl (stereo unspecified)

Reply:
1. 1.01
2. 1
3. 0.994
4. 0.972

Query: Entry under review: CC[C@H](C)C(=O)O[C@H]1CCC=C2C=C[C@H](C)C(CCC3C[C@@H](O)CC(=O)O3)[C@H]21 (stereo partly specified) . Reported normalized growth?
Reply: 0.989

###

Answer each item with its documented normalized growth.
# EXPERIMENT NOTES: chemical genetic growth profiling, strain panel (AID 1159580);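 further: tested at 20 µM; growth read once vehicle control cultures reached saturation at 30 °C; 1 = growth at the plate median or of vehicle wells; lower values mean less growth of the strain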
# TEST PARAMETERS: S. cerevisiae deletion strains, growth OD, locus YAL040C, strain CLN3, active compounds read low
Out of some 5,500 compounds screened, about 2,000 (36%) were called active. About 18% were inconclusive and are not listed. This is one part of the list.
Numbers only.

Consider the reported normalized growth for these molecules:
>>> df
                            chemical_smiles  result_number
0                      CC(C)NNC(=O)c1ccncc1          0.985
1  CC[C@H](C)C(=O)O[C@H]1CCC=C2C=C[C@H](C)[C@H](CC[C@@H]3C[C@@H](O)CC(=O)O3)[C@H]21           1.01

Would you be so kind as to report normalized growth for each listed record?
1. C=C1C(=O)O[C@@H]2[C@H]3O[C@]3(C)CCC=C(C)CC[C@@H]12
2. Cn1c(=O)c2[nH]cnc2n(C)c1=O

Reply:
1: 0.966; 2: 0.999

Query: Entry under review: CC1(C)NC(=O)N(c2ccc([N+](=O)[O-])c(C(F)(F)F)c2)C1=O . Reported normalized growth?
Reply: 1.05

###

# EXPERIMENT NOTES: chemical genetic growth profiling, strain panel (AID 1159580);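 further: tested at 20 µM; growth read once vehicle control cultures reached saturation at 30 °C; 1 = growth at the plate median or of vehicle wells; lower values mean less growth of the strain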
# TEST PARAMETERS: S. cerevisiae deletion strains, growth OD, locus YKL085W, strain MDH1, active compounds read low
In all, about 5,500 compounds went through this assay and about 2,000 (36%) were called active. Another 18% or so got no clear call; they are omitted. Some of the results follow.
Answer each item with its documented normalized growth.
Give bare numbers.

>>> df
                          compound           quantity  result_number
0  CCCCN(CCCC)CCCOC(=O)c1ccc(N)cc1  normalized growth          0.987
1     CCCCOC(=O)c1ccccc1C(=O)OCCCC  normalized growth          0.984
2        Nc1ccc(N=Nc2ccccc2)c(N)n1  normalized growth           1.01

Would you be so kind as to report normalized growth for each listed record?
1. COc1cc(-c2coc3cc(OCc4ccccc4)c(OC)c(O)c3c2=O)cc(O)c1OC
2. C=C1CCC(C2CC(=O)OC2=O)C(=O)CCC2C1CC2(C)C (stereo not given)
3. COc1cc2c(cc1OC)C1Cc3ccc(OC)c(OC)c3CN1CC2 (stereo not given)
4. COc1cc2occ(-c3ccccc3)c(=O)c2c(OC)c1C
5. OCc1ccccc1O

Reply:
1: 0.996; 2: 1; 3: 0.988; 4: 0.952; 5: 0.992

###

# EXPERIMENT NOTES: chemical genetic growth profiling, strain panel (AID 1159580);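 further: tested at 20 µM; growth read once vehicle control cultures reached saturation at 30 °C; 1 = growth at the plate median or of vehicle wells; lower values mean less growth of the strain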
# TEST PARAMETERS: S. cerevisiae deletion strains, growth OD, locus YCR088W, strain abp1, active compounds read low
The whole screen tested about 5,500 compounds, of which about 2,000 (36%) were called active. Roughly 18% stayed inconclusive and do not appear here. This is one part of the list.
QUANTITY: normalized growth
One number for each entry.

Consider the reported normalized growth for these molecules:
>>> print(df.to_string())
                                   molecule  result_number
0  CCC(C)(C)C(=O)O[C@H]1C[C@@H](C)C=C2C=C[C@H](C)[C@H](CC[C@@H]3C[C@@H](O)CC(=O)O3)[C@H]21           1.02
1  CCC(C)C(=O)O[C@H]1C[C@H](O)C=C2C=C[C@H](C)[C@H](CC[C@@H](O)C[C@@H](O)CC(=O)O)C21 (some centres undefined)              1
2   Cc1coc2c1C(=O)C(=O)c1c-2ccc2c1CCCC2(C)C          0.955

Would you be so kind as to report normalized growth for each listed record?
1. O=c1[nH]oc2c1CCNC2
2. O=C(O)CN(CC(=O)O)Cc1cc2c(-c3ccccc3C(=O)O)c3cc(CN(CC(=O)O)CC(=O)O)c(=O)cc-3oc2cc1O
3. O=c1cc(-c2ccccc2O)oc2cc(O)ccc12

Reply:
0.999
0.995
0.956
